# experiment: yeast display, Sf9 membrane polyspecificity reagent, FACS + sequencing; frameworks hold sequencing errors
parameter: polyreactivity (PSR sort gate)

Example cases with answers are listed next.
{"residue.codes": "QVQLVETGGGLVQAGGSLRLSCAASGLTFRGYAKGWYIQAPGKERELVARITIGSSTNYADSVKGRFTISRDIAKNTVYLQMNSLKQEDSAVYYCAADKPGQFTPSYNKIYDYWGQGTQVTVSS", "parameter": "polyreactivity (PSR sort gate)", "measured.value": "low polyreactivity"}
{"residue.codes": "QVQLVESGGGLVQAGGSLRLSCAASGRIFLKYAMGWYRHAPGKERELVAAISLSTGSTYYADSVKGRFTISRDNAKNTVYLQMNSLKAEDTAVYYCAATRKYRYVYWGQGTQGTVSS", "parameter": "polyreactivity (PSR sort gate)", "measured.value": "high polyreactivity"}
{"residue.codes": "QVQRVESGGGLVQAGGSLRLSCAASGSIFPIYAMGWYRQAPGKERELVAGITWSGGSTYYADSVKGRFTISRDNAKNTVYLQMNSLKPEDTAVYYCAAERWHPYDYWGQGTQVTVSS", "parameter": "polyreactivity (PSR sort gate)", "measured.value": "low polyreactivity"}
{"residue.codes": "QVQLVESGGGLVQAGGSLRLSCAASGSIFFSNAMGWYRQAPGKEREFVATITSSGVGTYYADSVKGRFTISRDNAKNTVYLQMNSLKPEDTAVDYCDADYNSQEDYWGQGTQVTVSS", "parameter": "polyreactivity (PSR sort gate)", "measured.value": "low polyreactivity"}

Note: attention shifts to another entry.
Challenge: Check the records and state polyreactivity (PSR sort gate) for QVQLVESGGGLVQAGGRLRLSCADSGRTFYYYAMGWYRQAPGKERELVAAIRWRATSTFYADSVKGRFTISRDNAKNTVYLQMNSLKPEDTAVYYCATTGGYRLQAQKYYYWGQGTQVTLSS
Response given: high polyreactivity

---

# experiment: yeast display, Sf9 membrane polyspecificity reagent, FACS + sequencing; frameworks hold sequencing errors
parameter: polyreactivity (PSR sort gate)

Record excerpt, results attached:
{"residue.codes": "QVQLVESGGGLVQAGGSLRLSCAASGSIFLRNAMGWYRQAPGKERELVAAISWGGRTYYADSVKGRFTISRDNAKNTVYLQLNSLKPEDRAVYYCSADGTWVRSPHFYYWGQGTQVTVSS", "polyreactivity (PSR sort gate)": "low polyreactivity"}
{"residue.codes": "QVQLVESGGGLVQAGGSLRLSCAASGRIFRYYAMGWYRQAPGKERELVAAITKNGGSTYYADSVKRRFTISRDNAKNTVYLQMNSLKPEDTAVYYCAAARLGNYDYWGQGTQVTVSS", "polyreactivity (PSR sort gate)": "high polyreactivity"}
{"residue.codes": "QVQLVESGGGLVQAGGSLRLSCAASGLTFYEYAMGWYTQAPGKERELVAAITASGGSTYYADSVKGRFTISRDNAKNTVYLQMNSLKPEDSAVYYCAAVDYVRYYPDEFDYWGQGTQVTVSS", "polyreactivity (PSR sort gate)": "low polyreactivity"}
{"residue.codes": "QVQLVESGGGLVQAGGSLRLSCAASGSTFRGYVMGWYRQAPGKERELVASINWDGGSTYYADSVKGRFTISRDNAKNTVYLQMNSLKPEDTAVYYCAARRVGGGFYTWRNPAYEYWGQGTQVTVSS", "polyreactivity (PSR sort gate)": "high polyreactivity"}

Now consider a different sequence.
Challenge: Item QVQLVESGAVLVQAGGSIRLSCAASGSSFPYYAMGWYRQAPVKERELVATISQDGGRTYADSVKGRFTISRDNAKNTVYLQMNSLKPEDTAVDYCAADYSVNYDFGYWGQGTQVTVSS : provide polyreactivity (PSR sort gate)
Response given: low polyreactivity
